Target: human B1R (Homo sapiens, UniProt P46663)
Construct: expressed in transfected cells; host or cells: CHO K1 cells (Chinese hamster ovary), stably transfected
Sequence (P46663 whole entry): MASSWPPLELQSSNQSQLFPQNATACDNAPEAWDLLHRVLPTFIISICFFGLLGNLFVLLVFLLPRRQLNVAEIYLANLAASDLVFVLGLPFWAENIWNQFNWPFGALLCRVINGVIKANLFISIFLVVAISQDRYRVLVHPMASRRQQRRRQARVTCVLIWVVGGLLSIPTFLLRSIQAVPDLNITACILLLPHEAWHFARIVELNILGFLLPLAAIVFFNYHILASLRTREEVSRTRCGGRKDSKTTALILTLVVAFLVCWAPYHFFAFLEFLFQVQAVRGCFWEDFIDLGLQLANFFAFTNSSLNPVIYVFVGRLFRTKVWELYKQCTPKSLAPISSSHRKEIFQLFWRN
Assay: FLIPR Ca2+ functional assay, B1R antagonism, human B1R in CHO K1 cells
Assay type: cell-based
Settings: test substance 10 μM; hB1R CHO K1 cells; agonist Lys-Des-Arg9 bradykinin at EC80; % of maximum achievable inhibition
property: inhibition at 10 µM (%)
Only the number, expressed in %, is required.

Field: example entries. Status: answers known.
> print(dat)
                                    compound             property  obsvalue
 1  COc1cc(C)c(S(=O)(=O)N2CCn3cccc3C2COCC(=O)N(C)C2CCN(c3ccncc3)CC2)c(C)c1 (stereo not shown)  inhibition at 10 µM      99.6
 2  COc1cc(C)c(S(=O)(=O)N2CCn3cccc3C2COCC(=O)N2CCN(C3CCN(C)CC3)CC2)c(C)c1 (stereo not shown)  inhibition at 10 µM      99.9
 3  Cc1ccc(S(=O)(=O)N2CCn3cccc3C2CC(=O)NC2CCCc3cc(CNC(C)(C)C)ccc32)cc1Cl (stereo not shown)  inhibition at 10 µM      99.9
 4  CN(Cc1ccc2c(c1)CCC(NC(=O)CC1c3cccn3CCN1S(=O)(=O)c1cccc(C(F)(F)F)c1)C2)C(C)(C)C (stereo not shown)  inhibition at 10 µM      99.8
 5  COc1ccc2cc(S(=O)(=O)N3CCn4cccc4C3CC(=O)NC3CCc4cc(CN(C)C(C)(C)C)ccc4C3)ccc2c1 (stereo not shown)  inhibition at 10 µM      99.8
 6  COc1ccc2cc(S(=O)(=O)N3CCn4cccc4C3CC(=O)NC3CCCc4cc(CN(C)C(C)(C)C)ccc43)ccc2c1 (stereo not shown)  inhibition at 10 µM      99.9
 7  O=C(CC1c2cccn2CCN1S(=O)(=O)c1cccc(Cl)c1Cl)NC1CCc2cc(CN3CCCCC3)ccc2C1 (stereo not shown)  inhibition at 10 µM      99.5
 8  CCC(C)NCc1ccc2c(c1)CCC(NC(=O)CC1c3cccn3CCN1S(=O)(=O)c1ccc(C)cc1)C2 (stereo not shown)  inhibition at 10 µM      99.2
 9  COc1ccc2cc(S(=O)(=O)N3CCn4cccc4C3CC(=O)NC3CCCc4cc(CN5CCCc6ccccc65)ccc43)ccc2c1 (stereo not shown)  inhibition at 10 µM      73.6
10  CCC(C)NCc1ccc2c(c1)CCCC2NC(=O)CC1c2cccn2CCN1S(=O)(=O)c1ccc(C)c(Cl)c1 (stereo not shown)  inhibition at 10 µM      99.8

inhibition at 10 µM for COc1cc(C)c(S(=O)(=O)N2CCn3cccc3C2COCC(=O)N2CCC(Cc3ccncc3)CC2)c(C)c1 (stereo not shown) ?
97.7

And the next one, COc1cc(C)c(S(=O)(=O)N2CCn3cccc3C2COCC(=O)N2CCC(Oc3ccncc3)CC2)c(C)c1 (stereo not shown) ?
100

Please answer likewise for O=C(CC1c2cccn2CCN1S(=O)(=O)c1cccc(C(F)(F)F)c1)NC1CCCc2cc(CN3CCOCC3)ccc21 (stereo not shown)
99

Next entry: Cc1ccc(S(=O)(=O)N2CCn3cccc3C2CC(=O)NC2CCCc3cc(CN(C)C(C)(C)C)ccc32)cc1 (stereo not shown)
99.7

---

Listed below: inhibition at 10 µM values for each entry.
Target: B1R of the rat (Rattus norvegicus)
Construct: expressed in transfected cells; host or cells: CHO K1 cells (Chinese hamster ovary), stably transfected
Sequence (P97583 1-337): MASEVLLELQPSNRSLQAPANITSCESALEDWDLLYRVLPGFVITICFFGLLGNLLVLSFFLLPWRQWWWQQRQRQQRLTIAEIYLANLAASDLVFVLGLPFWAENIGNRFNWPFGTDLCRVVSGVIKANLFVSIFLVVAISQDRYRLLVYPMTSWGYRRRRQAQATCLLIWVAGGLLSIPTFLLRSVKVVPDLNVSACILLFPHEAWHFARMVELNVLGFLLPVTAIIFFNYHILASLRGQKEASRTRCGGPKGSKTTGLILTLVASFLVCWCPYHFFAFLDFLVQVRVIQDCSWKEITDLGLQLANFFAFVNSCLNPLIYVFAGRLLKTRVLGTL
Assay: FLIPR Ca2+ functional assay, B1R antagonism, rat B1R in CHO K1 cells
Format: cell-based
Settings: test substance 10 μM; rB1R CHO K1 cells; agonist Des-Arg9 bradykinin at EC80; % of maximum achievable inhibition
// units = %; emit number, no label

Look over these answered cases.
> print(dat)
                                   compound             property  unittag  obsvalue
1  COc1ccc2cc(S(=O)(=O)N3CCn4cccc4C3CC(=O)NC3CCCc4cc(CN(C)C)ccc43)ccc2c1 (centres unmarked) [Example 106]  inhibition at 10 µM        %       101
2  CCC(C)NCc1ccc2c(c1)CCC(NC(=O)CC1c3cccn3CCN1S(=O)(=O)c1cccc(C(F)(F)F)c1)C2 (centres unmarked) [Example 65]  inhibition at 10 µM        %      98.7
3  Cc1ccc(S(=O)(=O)N2CCn3cccc3C2CC(=O)NC2CCc3cc(CNCc4ccccc4)ccc3C2)cc1Cl (centres unmarked) [Example 51]  inhibition at 10 µM        %       103
4  Cc1cccc(Cl)c1S(=O)(=O)N1CCn2cccc2C1CC(=O)N1CCN(c2ccccc2F)CC1 (centres unmarked) [Example 158]  inhibition at 10 µM        %        32
5  O=C(CC1c2cccn2CCN1S(=O)(=O)c1ccccc1)N1CCN(c2ccc(Cl)c(Cl)c2)CC1 (centres unmarked) [Example 231]  inhibition at 10 µM        %     -0.67

What value of inhibition at 10 µM has been recorded for this entry: O=C(CC1c2cccn2CCN1S(=O)(=O)c1ccc(C(F)(F)F)cc1Cl)NCC1CCCN(Cc2ccccc2)C1 (centres unmarked) [Example 254]
8.85

Same question for O=C(COCC1c2cccn2CCN1S(=O)(=O)c1ccccc1C(F)(F)F)N1CCC(Oc2ccncc2)CC1 (centres unmarked) [Example 5] please.
102

Next compound up: COc1ccc2cc(S(=O)(=O)N3CCn4cccc4C3CC(=O)NC3CCCc4cc(CN5C6CCCC5CC6)ccc43)ccc2c1 (centres unmarked) [Example 95]
99.8

Likewise for Cc1ccc(S(=O)(=O)N2CCn3cccc3C2CC(=O)NC2CCc3cc(CN(C)C(C)(C)C)ccc3C2)cc1 (centres unmarked) [Example 73] ?
103

Also COc1cc(C)c(S(=O)(=O)N2CCn3cccc3C2CC(=O)N2CCN(Cc3ccc(C)cc3)CC2)c(C)c1 (centres unmarked) [Example 241] , if possible.
46.8

# repeat for COc1ccc2cc(S(=O)(=O)N3CCn4cccc4C3CC(=O)NC3CCCc4cc(CN5CCCC5)ccc43)ccc2c1 (centres unmarked) [Example 98]
99.7

Cc1cccc(Cl)c1S(=O)(=O)N1CCn2cccc2C1CC(=O)N1CCCCC1Cc1ccccn1 (centres unmarked) [Example 250] , same question.
-38

Please answer likewise for COc1ccc2cc(S(=O)(=O)N3CCn4cccc4C3CC(=O)NC3CCCc4cc(CNCc5ccccc5)ccc43)ccc2c1 (centres unmarked) [Example 100]
103

Follow-up entry: COc1cc(C)c(S(=O)(=O)N2CCn3cccc3C2CC(=O)NCC2CCN(Cc3ccccc3)C2)c(C)c1 (centres unmarked) [Example 151]
104

Here is the next compound: CN1CCN(C2CCN(C(=O)CC3c4cccn4CCN3S(=O)(=O)c3ccccc3)CC2)CC1 (centres unmarked) [Example 177]
-1.9

Please answer likewise for COc1cc(C)c(S(=O)(=O)N2CCn3cccc3C2CC(=O)N2CCN(Cc3c(C)cc(C)cc3C)CC2)c(C)c1 (centres unmarked) [Example 239]
-8.74

Again, but for O=C(CC1c2cccn2CCN1S(=O)(=O)c1ccccc1)N1CCN(Cc2ccc(Cl)c(Cl)c2)CC1 (centres unmarked) [Example 266]
-3.52

Here is the next compound: Cc1ccc(S(=O)(=O)N2CCn3cccc3C2CC(=O)NC2CCc3cc(CN4CCN(C)CC4)ccc3C2)cc1Cl (centres unmarked) [Example 61]
100

Field entry: O=C(CC1c2cccn2CCN1S(=O)(=O)c1cccc(C(F)(F)F)c1)NC1CCCc2cc(CN3CCCc4ccccc43)ccc21 (centres unmarked) [Example 90]
51.4

And then COc1cc(C)c(S(=O)(=O)N2CCn3cccc3C2CC(=O)N(C)C(CN2CCOCC2)c2ccccc2)c(C)c1 (centres unmarked) [Example 256] , what is it?
5.54

Can you check N#Cc1cccnc1N1CCN(C(=O)CC2c3cccn3CCN2S(=O)(=O)c2cccc(C(F)(F)F)c2)CC1 (centres unmarked) [Example 269] next?
1.05

Also COc1cc(C)c(S(=O)(=O)N2CCn3cccc3C2CC(=O)N2CCC3(CC2)CCN(c2ccncc2)C3)c(C)c1 (centres unmarked) [Example 18] ?
94.8

Then this compound: CNCc1ccc2c(c1)CCC(NC(=O)CC1c3cccn3CCN1S(=O)(=O)c1ccc(C)cc1)C2 (centres unmarked) [Example 140]
102

src = patent US8158628B2
